OBSERVATION_TYPE: melting point

# count of solved cases: 6
{"COMPOUND": "CSc1cc(C(=O)C(C#N)C(=O)C2CC2)ccc1C (stereo not drawn)", "melting point": "64.7 to 67.9 °C"}
{"COMPOUND": "Cc1ccc(C2(c3ccc(C)cc3)NC(=O)N(CCCN3CCC(C#N)(c4ccccc4)CC3)C2=O)cc1", "melting point": "157 to 159 °C"}
{"COMPOUND": "CC(=O)N(C(C)=O)c1c(C#N)cnn1-c1ncc(C(F)(F)F)cc1Cl", "melting point": "130 to 132 °C"}
{"COMPOUND": "Cc1ccc(S(=O)(=O)c2cn(S(=O)(=O)c3ccccc3)c3ccccc23)cc1", "melting point": "189 to 190 °C"}
{"COMPOUND": "COc1ccc(-c2nc(Sc3cccc(OC)c3)n(C3CCCCO3)c2-c2ccc(OC)cc2)cc1 (stereo not drawn)", "melting point": "123 °C"}
{"COMPOUND": "C=C1C[C@@H]2[C@H](CC[C@]3(C)C(=O)CC[C@@H]23)[C@@]2(C)CCC(=O)C=C12", "melting point": "155 to 160 °C"}

Need melting point of O=C1c2ccc(-n3ncc4ccccc43)cc2CCN1CCN1CCCC1 , thanks.
185 to 186 °C

Now the compound CSc1nc2c(NCc3ccccc3)ncnc2n1C1OC(CO)C(O)C1O (stereo not drawn)
81 to 84 °C

Now the compound COc1cc2c3c([nH]c2c(Cl)c1Cl)C(=O)NCC3
263 to 264 °C

Now the compound CC(=O)NC(Cc1cc(F)c(F)cc1F)Cc1nnc2n1ccc1ncnn12 (stereo not drawn)
233 to 235 °C

Now the compound C=CCc1cc(Nc2ccn(-c3ccccc3)n2)cc(CC=C)c1O
87 to 88 °C

Now the compound S=C(Nc1c(Cl)cccc1Cl)N1CCN(c2cnccn2)CC1
225 to 227 °C

Now the compound C=CCOc1cc(C(=O)O)cc([N+](=O)[O-])c1C(=O)c1ccccc1
192 to 193 °C

Now the compound Cn1ccnc1-c1ccc(-c2cnc([C@H](Cc3ccccn3)N(C=O)OC(C)(C)C)n2C)cc1
160 to 163 °C

Now the compound CCOc1ccc2c(c1)CC(=O)c1cc(C(C)C(N)=O)ccc1S2 (stereo not drawn)
128 to 130 °C

Now the compound CCN1CCN(c2cc3c(cc2Cl)c(=O)c(C(=O)O)cn3CC)CC1
245 to 248 °C

Now the compound CCc1nc2c(C)cc(C)nc2n1Cc1ccc(C(=C(c2nnn[nH]2)S(C)=O)c2ccccc2)cc1 (stereo not drawn)
141 to 144 °C

Now the compound CNCCc1cc(Br)cc(-c2sccc2C)c1N
68 to 70 °C

Now the compound O=C(O)CCc1oc(-n2cccn2)nc1-c1ccc(Cl)cc1
171 to 172 °C

Now the compound COc1cc(C)c(C)cc1NC(=O)N1CCN(c2cc(-c3ccccc3)ccc2OC)CC1
139 to 140 °C

Now the compound CC1CCC(C(C)C)C(OC(=O)[C@@H](c2ccc(OCc3ccc4ccccc4n3)cc2)C2CCCCCC2)C1 (stereo partly drawn)
127 °C

Now the compound c1ccc(COc2ccc(CCOc3ccc(CCNc4ncnc5nccnc45)cc3)cc2)cc1
120 to 122 °C

Now the compound COc1ccc(CCNC(=O)CNc2cccc(C(N)=O)c2)cc1OC
133 to 135 °C

Now the compound CCOC(=O)Cn1c2ccc(Cl)ccc-2c(C(=O)OCC)c1=O
177 to 179 °C

Now the compound COc1ccc2[nH]c(CO)cc2c1C
133 to 135 °C

Source listed as a melting point compilation (Tetko et al.; mined from patent text by program, amines drawn as free bases though some values may be those of a salt).
